Test: CelltiterGlo viability cell assay
Format: cell-based
Details: human, HCC1806 breast cancer cells, HCC1806, 3 day, 0.03 uM; read-out: viability Replicate 2
From the text: Supplementary Figure 13. […] Viability of (a) Multiple Myeloma lines and (b) Breast Cancer cell lines following 3 or 6 days treatment with […] manufacturer’s instructions as described in the Supplementary methods. Data are normalized to DMSO control. N=3 biological replicates, +/- SEM. Source data are provided as a Source Data […] CelltiterGlo viability cell assay […]
measured-attribute: viability at 3 day, 0.03 µM (%)

compound-structure: COc1cc(OC)cc(-c2noc(N3CCN(C)C4(CCN(c5ccnc(C)c5)CC4)C3)n2)c1
result: 101
